# measurement_description: total protein half-life in vivo (active degradation + dilution); higher = more stable protein
# experimental_setup: E. coli NCM3722 delta-smpB; growth: N-lim chemostat; doubling time 6 h
Kindly return met if reported total protein half-life in vivo is no lower than 3 h; return not met if it is lower.

Previously resolved entries follow.
>>> group("MNIKIAALTLAIASGISAQWAIAADMPASPAPTIPVKQYVTQVNADNSVTFRYFAPGAKNVSVVVGVPVPDNIHPMTKDEAGVWSWRTPILKGNLYEYFFNVDGVRSIDTGTAMTNPQRQVNSSMILVPGSYLDTRSVAHGDLIAITYHSNALQSERQMYVWTPPGYTGMGEPLPVLYFYHGFGDTGRSAIDQGRIPQIMDNLLAEGKIKPMLVVIPDTETDAKGIIPEDFVPQERRKVFYPLNAKAADRELMNDIIPLISKRFNVRKDADGRALAGLSQGGYQALVSGMNHLESFGWLATFSGVTTTTVPDEGVAARLNDPAAINQQLRNFTVVVGDKDVVTGKDIAGLKTELEQKKINFDYQEYPGLNHEMDVWRPAYAAFVQKLFK")
"met"
>>> group("MTHKATEILTGKVMQKSVLITGCSSGIGLESALELKRQGFHVLAGCRKPDDVERMNSMGFTGVLIDLDSPESVDRAADEVIALTDNCLYGIFNNAGFGMYGPLSTISRAQMEQQFSANFFGAHQLTMRLLPAMLPHGEGRIVMTSSVMGLISTPGRGAYAASKYALEAWSDALRMELRHSGIKVSLIEPGPIRTRFTDNVNQTQSDKPVENPGIAARFTLGPEAVVDKVRHAFISEKPKMRYPVTLVTWAVMVLKRLLPGRVMDKILQG [P0AFP4]")
"met"
>>> group("MPSLSKEAALVHEALVARGLETPLRPPVHEMDNETRKSLIAGHMTEIMQLLNLDLADDSLMETPHRIAKMYVDEIFSGLDYANFPKITLIENKMKVDEMVTVRDITLTSTCEHHFVTIDGKATVAYIPKDSVIGLSKINRIVQFFAQRPQVQERLTQQILIALQTLLGTNNVAVSIDAVHYCVKARGIRDATSATTTTSLGGLFKSSQNTRHEFLRAVRHHN [P0A6T5]")
"not met"
>>> group("MKDVVDKCSTKGCAIDIGTVIDNDNCTSKFSRFFATREEAESFMTKLKELAAATSSADEGASVAYKIKDLEGQVELDAAFTFSCQAEMIIFELSLRSLA")
"not met"
>>> group("MQKDALNNVHITDEQVLMTPEQLKAAFPLSLQQEAQIADSRKSISDIIAGRDPRLLVVCGPCSIHDPETALEYARRFKALAAEVSDSLYLVMRVYFEKPRTTVGWKGLINDPHMDGSFDVEAGLQIARKLLLELVNMGLPLATEALDPNSPQYLGDLFSWSAIGARTTESQTHREMASGLSMPVGFKNGTDGSLATAINAMRAAAQPHRFVGINQAGQVALLQTQGNPDGHVILRGGKAPNYSPADVAQCEKEMEQAGLRPSLMVDCSHGNSNKDYRRQPAVAESVVAQIKDGNRSIIGLMIESNIHEGNQSSEQPRSEMKYGVSVTDACISWEMTDALLREIHQDLNGQLTARVA")
"not met"

Query: # bool: total protein half-life in vivo of "MSKLDLNALNELPKVDRILALAETNAELEKLDAEGRVAWALDNLPGEYVLSSSFGIQAAVSLHLVNQIRPDIPVILTDTGYLFPETYRFIDELTDKLKLNLKVYRATESAAWQEARYGKLWEQGVEGIEKYNDINKVEPMNRALKELNAQTWFAGLRREQSGSRANLPVLAIQRGVFKVLPIIDWDNRTIYQYLQKHGLKYHPLWDEGYLSVGDTHTTRKWEPGMAEEETRFFGLKRECGLHEG" >= 3 h
Result: not met

Query: Item MANRMILNETAWFGRGAVGALTDEVKRRGYQKALIVTDKTLVQCGVVAKVTDKMDAAGLAWAIYDGVVPNPTITVVKEGLGVFQNSGADYLIAIGGGSPQDTCKAIGIISNNPEFADVRSLEGLSPTNKPSVPILAIPTTAGTAAEVTINYVITDEEKRRKFVCVDPHDIPQVAFIDADMMDGMPPALKAATGVDALTHAIEGYITRGAWALTDALHIKAIEIIAGALRGSVAGDKDAGEEMALGQYVAGMGFSNVGLGLVHGMAHPLGAFYNTPHGVANAILLPHVMRYNADFTGEKYRDIARVMGVKVEGMSLEEARNAAVEAVFALNRDVGIPPHLRDVGVRKEDIPALAQAALDDVCTGGNPREATLEDIVELYHTAW [P0A9S1] with total protein half-life in vivo of 3 h or above?
Result: not met

Query: API: above_or_equal(metric=total protein half-life in vivo, cutoff=3 h) for item "MAKLTLQEQLLKAGLVTSKKAAKVERTAKKSRVQAREARAAVEENKKAQLERDKQLSEQQKQAALAKEYKAQVKQLIEMNRITIANGDIGFNFTDGNLIKKIFVDKLTQAQLINGRLAIARLLVDNNSEGEYAIIPASVADKIAQRDASSIVLHSALSAEEQDEDDPYADFKVPDDLMW"
Result: not met

Query: Has "MRLFNWRRQAVLNAMPLVKPDQVRTPWHEFWRRFRRQHMAMTAALFVILLIVVAIFARWIAPYDAENYFDYDNLNNGPSLQHWFGVDSLGRDIFSRVLVGAQISLAAGVFAVFIGAAIGTLLGLLAGYYEGWWDRLIMRICDVLFAFPGILLAIAVVAVLGSGIANVIIAVAIFSIPAFARLVRGNTLVLKQQTFIESARSIGASDMTVLLRHILPGTVSSIVVFFTMRIGTSIISAASLSFLGLGAQPPTPEWGAMLNEARADMVIAPHVAVFPALAIFLTVLAFNLLGDGLRDALDPKIKG" a recorded total protein half-life in vivo greater than or equal to 3 h?
Result: met

The measured values listed here are drawn from the supplement of paper PMC11246515.
